Data origin: the supplement of paper PMC11208160

Entries and their recombinant UMI read abundance (log10)
- experimental.protocol: recombinant UMI read abundance after kanamycin selection (control-corrected) (log10(CPM+1)); higher = more efficient recombination; extreme values may be limits of the assay; sequences stand for … in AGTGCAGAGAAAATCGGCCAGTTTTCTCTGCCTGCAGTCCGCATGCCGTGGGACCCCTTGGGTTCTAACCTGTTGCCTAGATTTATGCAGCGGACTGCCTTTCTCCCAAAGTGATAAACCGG…AGGTTGGTTTCACT; site = the 11-nt donor
Form field (numeric): enter value without unit.

Worked set:
- TGTTCACCATGGACCGGTTTTCCCGGTAATCCGTATTTGAC (site TGTACACCTGT): 0
- TAGCTCACATGGACCGGTTTTCCCGGTAATCCGTATTTGAT (site GAGCTCACTAT): 0.0104
- CCAGGGGCATGGACCGGTTTTCCCGGTAATCCGTATTTGAT (site CCAGGTGCTAT): 0.888
- TGGAACCCATGGACCGGTTTTCCCGGTAATCCGTATTTGTT (site CGGAATCCTAA): 0

API: the following record is the query input.
**Q:** Record request: recombinant UMI read abundance (log10) value, item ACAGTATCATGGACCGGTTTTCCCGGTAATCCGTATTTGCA (site ATAGCATCTTG)
**A:** 1.83

----------
- experimental.protocol: recombinant barcode read abundance after kanamycin selection (control-corrected) (log10(CPM+1)); higher = more efficient recombination; sequences stand for … in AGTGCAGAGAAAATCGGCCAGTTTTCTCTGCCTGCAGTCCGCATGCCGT…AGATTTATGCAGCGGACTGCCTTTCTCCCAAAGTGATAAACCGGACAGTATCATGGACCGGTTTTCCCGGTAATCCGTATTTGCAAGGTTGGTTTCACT; site = the 11-nt target
recorded.endpoint: recombinant barcode read abundance (log10)
I only need the number, thanks.

// below: answered sequences
* AGTAACCCTTGGGTTCTAACCTGTTGCCT (site ACTAACCCTAG) | 0.158
* GCCTATGCTTGGGTTCTAACCTGTTGCCT (site GACTATGCTAG) | 0.115
* CATAACCCTTGGGTTCTAACCTGTTGCAT (site ATCGGATCTCG) | 0.0317
* CCGATTCCTTGGGTTCTAACCTGTTGCCT (site CCGACTCCTAG) | 0.171

**Q:** Which recombinant barcode read abundance (log10) value is on record for CAATCTGCTTGGGTTCTAACCTGTTGCCT (site CAGTCTGCTAG) ?
**A:** 0.101

----------
- experimental.protocol: recombinant UMI read abundance after kanamycin selection (control-corrected) (log10(CPM+1)); higher = more efficient recombination; extreme values may be limits of the assay; sequences stand for … in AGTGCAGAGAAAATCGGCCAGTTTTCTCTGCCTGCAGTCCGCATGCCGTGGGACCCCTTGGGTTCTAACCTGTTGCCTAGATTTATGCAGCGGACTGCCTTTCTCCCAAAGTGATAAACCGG…AGGTTGGTTTCACT; site = the 11-nt donor
recorded.endpoint: recombinant UMI read abundance (log10)
Output: the number by itself.

Past entries and their recorded results:
- GACCGTCCATGGACCGGTTTTCCCGGTAATCCGTATTTGAT (site CACCGTCCTAT): 0.00334
- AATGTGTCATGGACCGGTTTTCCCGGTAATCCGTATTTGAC (site AATGTGTCTTT): 0.181
- TGAATAACATGGACCGGTTTTCCCGGTAATCCGTATTTGCA (site TGAATAACTTG): 1.38
- CCTGTATCATGGACCGGTTTTCCCGGTAATCCGTATTTGCA (site ACAGTATCTTG): 0
- CTCTTCTCATGGACCGGTTTTCCCGGTAATCCGTATTTGTA (site CTCTTCTCTTA): 2.1

**Q:** May I ask what recombinant UMI read abundance (log10) has been recorded for GGCCACCCATGGACCGGTTTTCCCGGTAATCCGTATTTGAT (site GGCCACCCTAC) ?
**A:** 0.00622

**Q:** Which recombinant UMI read abundance (log10) value is on record for CACAGCCCATGGACCGGTTTTCCCGGTAATCCGTATTTGTT (site CACCGCCCTAA) ?
**A:** 0.00684

**Q:** I would be grateful if you could share the reported recombinant UMI read abundance (log10) for CTGCTAGCATGGACCGGTTTTCCCGGTAATCCGTATTTGCT (site CTGCTACCTAG) .
**A:** 0

**Q:** Look up recombinant UMI read abundance (log10): CTGGACACATGGACCGGTTTTCCCGGTAATCCGTATTTGCA (site CTGGAGACTTG)
**A:** 0.00455
